Can you tell me IC50 for the items I'm about to list?
tested on: A549; assay: cells; conditions: Homo sapiens
Description: Cytotoxicity against human A549 cells assessed as growth inhibition by MTT assay
Give just the number in µM; leave the unit off.

The reported IC50 of the molecule `Cc1cc(NNC(=O)c2cnccn2)n2nc(SCc3nc4ccccc4[nH]3)nc2n1` was 10.3

Cc1cc(Nc2cccc3c2CN(C2CCC(=O)NC2=O)C3=O)n2nc(SCc3nc4ccccc4[nH]3)nc2n1 (stereo not given) has a reported IC50 of 19.8

Recorded IC50 (molecule `O=c1[nH]cc(F)c(=O)[nH]1` ): 14

Measured IC50, `Cc1cc(NCCCO)n2nc(SCc3ccccc3)nc2n1` : 8.85

Consider `COc1cc(/C=C/C(=O)c2ccc(Nc3cc(C)nc4nc(SCc5nc6ccccc6[nH]5)nn34)cc2)cc(OC)c1OC` . Its measured IC50 is 8.79

Per the record, `Cc1cc(N2CCC(N3CCCCC3)CC2)n2nc(SCc3ccccc3)nc2n1` has IC50 of 8.87

Record summary for `COc1cc(Nc2cc(C)nc3nc(SCc4nc5ccccc5[nH]4)nn23)cc(OC)c1OC` : reported IC50 = 18

Record summary for `Cc1cc(N)n2nc(SCc3ccccc3)nc2n1` : reported IC50 = 9.74

For this molecule ( `Cc1cc(OCCN2CCCC2)n2nc(SCc3ccccc3)nc2n1` ), measured IC50 is 22.8

Given item `Cc1cc(Nc2ccc(C(=O)/C=C/c3cccs3)cc2)n2nc(SCc3nc4ccccc4[nH]3)nc2n1` , the value recorded as its IC50 is 9.9

---

system: A549; experiment: cells; settings: Homo sapiens
Measurement Kind: IC50 (µM)
Provide only the numeric value, understood in µM.

Measured IC50, `Cc1cc(NCCCN2CCOCC2)n2nc(SCc3ccccc3)nc2n1` : 17

Entry `Cc1cc(Nc2ccccc2)n2nc(SCc3ccccc3)nc2n1` ; IC50 = 16.4

Measured IC50 of `Cc1cc(Nc2ccc(C#N)cc2)n2nc(SCc3nc4ccccc4[nH]3)nc2n1` : 13.9

The compound listed as `Cc1cc(NCCCn2ccnc2)n2nc(SCc3ccccc3)nc2n1` has a reported IC50 of 16.1

Input CCC1(c2ccc(Nc3cc(C)nc4nc(SCc5nc6ccccc6[nH]5)nn34)cc2)CCC(=O)NC1=O (stereo not given) . Output IC50: 17.5

---

test system: PC-9; assay: cells; conditions: Homo sapiens
Description: Cytotoxicity against human PC9 cells assessed as growth inhibition by MTT assay
pIC50: −log10 of the molar value.
Label Yes when pIC50 is at or above 5; otherwise label No.

[Q] In plain terms: is recorded pIC50 at least 5 for `Cc1cc(NCCCN2CCOCC2)n2nc(SCc3ccccc3)nc2n1` ?
[A] No

[Q] Textbook exercise: given the entry `COc1cc(/C=C/C(=O)c2ccc(Nc3cc(C)nc4nc(SCc5nc6ccccc6[nH]5)nn34)cc2)cc(OC)c1OC` , state whether its pIC50 is greater than or equal to 5.
[A] Yes

[Q] I'd appreciate it if you could say whether Cc1cc(Nc2cccc3c2CN(C2CCC(=O)NC2=O)C3=O)n2nc(SCc3nc4ccccc4[nH]3)nc2n1 (stereo unspecified) has pIC50 at least equal to 5.
[A] No

[Q] Is pIC50 at least 5? Consider O=c1[nH]cc(F)c(=O)[nH]1 [FLUOROURACIL]
[A] Yes

---

system: ECa-109 cell line; test: cells; conditions: Homo sapiens
Description: Cytotoxicity against human EC109 cells assessed as growth inhibition by MTT assay
Measurement Kind: pIC50
In simple prose, pIC50 is minus the logarithm base ten of a concentration in moles per litre.

# compound `O=c1[nH]cc(F)c(=O)[nH]1` ; its pIC50 = 4.59

The compound identified as `Cc1cc(Nc2ccc(C(=O)/C=C/c3cccs3)cc2)n2nc(SCc3nc4ccccc4[nH]3)nc2n1` registered its pIC50 at 4.98

pIC50 recorded for this compound, `COc1cc(/C=C/C(=O)c2ccc(Nc3cc(C)nc4nc(SCc5nc6ccccc6[nH]5)nn34)cc2)cc(OC)c1OC` , is 5.49

---

test system: PC-9; assay: cells; settings: Homo sapiens
For each of the compounds below, state its IC50.
Your answer is read as µM, so omit the unit and give the number.

Lab note: measured IC50 of `Cc1cc(NCCCO)n2nc(SCc3ccccc3)nc2n1` was 10.7

Given item `Cc1cc(NCCCn2ccnc2)n2nc(SCc3ccccc3)nc2n1` , the value recorded as its IC50 is 12.3

Memo: CCC1(c2ccc(Nc3cc(C)nc4nc(SCc5nc6ccccc6[nH]5)nn34)cc2)CCC(=O)NC1=O (configuration not stated) , reported IC50: 12.2

The recorded IC50 for `Cc1cc(N)n2nc(SCc3ccccc3)nc2n1` is 8.14

// sample `Cc1cc(Nc2ccc(C(=O)/C=C/c3cccs3)cc2)n2nc(SCc3nc4ccccc4[nH]3)nc2n1` , its IC50 was 11

Notebook: `Cc1cc(NNC(=O)c2cnccn2)n2nc(SCc3nc4ccccc4[nH]3)nc2n1` , IC50 read as 12.3

Recorded result, `Cc1cc(NNC(=O)c2cnccn2)n2nc(SCc3ccccc3)nc2n1` , IC50: 12.7
